Just for reference, patent US10669272B2 is where these values come from.

Overview of recorded pIC50 for various compounds
target: human DGKζ (Homo sapiens, UniProt Q13574); construct: TVMV protease cleavage site (C); Hexa-His (C); made in house; host or cells: Sf9 insect cells (baculovirus, Bac-to-Bac); assay: DGKζ LIPGLO assay (extruded liposome substrate), in vitro DGK inhibition; type: biochemical; conditions: liposome (LIPGLO) assay; read-out: DGKz LIPGLO IC50
Sequence (Q13574 with tags, fused parts or gaps isoform Q13574-4): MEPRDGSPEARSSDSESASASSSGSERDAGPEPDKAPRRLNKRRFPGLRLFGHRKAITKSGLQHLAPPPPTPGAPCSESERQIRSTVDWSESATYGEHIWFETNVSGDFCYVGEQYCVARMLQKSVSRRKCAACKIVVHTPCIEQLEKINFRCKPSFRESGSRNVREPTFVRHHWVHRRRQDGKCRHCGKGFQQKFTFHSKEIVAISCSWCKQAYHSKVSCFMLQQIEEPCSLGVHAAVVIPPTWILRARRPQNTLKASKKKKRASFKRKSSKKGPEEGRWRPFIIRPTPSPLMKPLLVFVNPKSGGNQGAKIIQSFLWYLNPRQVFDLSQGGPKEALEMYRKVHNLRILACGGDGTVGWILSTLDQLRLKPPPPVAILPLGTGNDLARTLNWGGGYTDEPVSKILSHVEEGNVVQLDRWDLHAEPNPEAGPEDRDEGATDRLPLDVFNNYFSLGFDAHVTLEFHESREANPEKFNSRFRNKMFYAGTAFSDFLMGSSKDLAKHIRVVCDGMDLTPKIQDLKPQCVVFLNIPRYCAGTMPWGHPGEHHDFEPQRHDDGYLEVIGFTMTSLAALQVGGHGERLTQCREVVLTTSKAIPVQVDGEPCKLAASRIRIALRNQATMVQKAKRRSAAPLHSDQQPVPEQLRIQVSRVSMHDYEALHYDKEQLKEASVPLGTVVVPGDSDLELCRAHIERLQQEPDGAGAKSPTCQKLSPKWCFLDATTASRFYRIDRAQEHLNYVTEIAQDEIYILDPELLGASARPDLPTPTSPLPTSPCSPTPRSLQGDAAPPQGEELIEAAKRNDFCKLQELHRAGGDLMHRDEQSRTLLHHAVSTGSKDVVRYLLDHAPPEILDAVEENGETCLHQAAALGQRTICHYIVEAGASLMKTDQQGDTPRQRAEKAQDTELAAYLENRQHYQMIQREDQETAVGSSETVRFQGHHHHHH
Interpret pIC50 as the negative base-10 log of the concentration measured in mol/L.

In the examples that follow, each entry is paired with its recorded pIC50.
C[C@@H]1CN(c2cc(=O)n(C)c3ccc(C#N)nc23)[C@@H](C)CN1Cc1ccc(P(C)(C)=O)cc1 [Example 1289] | 3.89
CC(c1ccc(OC(F)(F)F)c(F)c1)N1C[C@H](C)N(c2cc(=O)n(C)c3ccc(C#N)nc23)C[C@H]1C (single isomer, unassigned) [Example 1204] | 6.33

Field: next compound
pIC50 reported for this compound CC[C@@H]1CN(c2cc(=O)n(C)c3ccc(C#N)nc23)[C@@H](C)CN1C(c1ccc(F)cc1)c1ccc(C(F)(F)F)cn1 (single isomer, unassigned) [Example 1107] : 6.89

###

molecular target: human DGKζ (Homo sapiens, UniProt Q13574); construct: TVMV protease cleavage site (C); Hexa-His (C); made in house; host or cells: Sf9 insect cells (baculovirus, Bac-to-Bac); assay: DGKζ LIPGLO assay (extruded liposome substrate), in vitro DGK inhibition; assay type: biochemical; settings: liposome (LIPGLO) assay; read-out: DGKz LIPGLO IC50
Some molecules, each annotated with its measured pIC50.
pIC50 field: float, defined as -log10 of concentration (mol/L).

Some solved cases for reference:
CC[C@H]1CN(C(C)c2cc(F)cc(OC(F)(F)F)c2)[C@H](C)CN1c1cc(=O)n(C)c2ccc(C#N)nc12 (some centres unmarked) [Example 1385] | 6.15
C[C@@H]1CN(c2cc(=O)n(C)c3ccc(C#N)nc23)[C@@H](C)CN1C(c1ccc(F)cc1)c1cnn2ccccc12 (single isomer, unassigned) [Example 698] | 6.40
CC(c1c(F)cc(F)cc1F)N1C[C@H](C)N(c2cc(=O)n(C)c3ccc(C#N)nc23)C[C@H]1C (single isomer, unassigned) [Example 432] | 6.30

Hey, human DGKζ (Homo sapiens, UniProt Q13574) data for `C[C@@H]1CN(c2cc(=O)n(C)c3ccc(C#N)nc23)[C@@H](C)CN1Cc1c(F)cccc1C(F)(F)F` : pIC50 came out at 5.80

pIC50 of COC(=O)C1CN(c2c(Cl)c(=O)n(C)c3ccc(C#N)nc23)CCN1C(c1ccc(F)cc1)c1ccc(F)cc1 (single isomer, unassigned) [Example 77] , assay on human DGKζ (Homo sapiens, UniProt Q13574), is 3.62

human DGKζ (Homo sapiens, UniProt Q13574) pIC50 of COCC1CN(c2cc(=O)n(C)c3ccc(C#N)nc23)CCN1C(c1ccc(F)cc1)c1ccc(F)cc1 (single isomer, unassigned) [Example 92] is 5.27

C[C@@H]1CN(c2cc(=O)n(C)c3ccc(C#N)nc23)[C@@H](C)CN1C(c1ccc(Cl)cc1)c1ccncn1 (single isomer, unassigned) [Example 397] tested on human DGKζ (Homo sapiens, UniProt Q13574) gave pIC50: 4.80

Field pIC50 (human DGKζ (Homo sapiens, UniProt Q13574)), entry COC[C@@H]1CN(c2cc(=O)n(C)c3ccc(C#N)nc23)[C@@H](C)CN1C(c1ccc(F)cc1)c1ccc(C#N)cc1 (single isomer, unassigned) [Example 1158] : 5.89

Response field pIC50 (human DGKζ (Homo sapiens, UniProt Q13574)) for item CCC(c1ccc(OC(C)(C)C)cc1)N1C[C@H](C)N(c2cc(=O)n(C)c3ccc(C#N)nc23)C[C@H]1C (single isomer, unassigned) [Example 1443] : 6.62

###

target: human DGKζ (Homo sapiens); construct: TVMV protease cleavage site (C); Hexa-His (C); made in house; host or cells: Sf9 insect cells (baculovirus, Bac-to-Bac); assay: DGKζ LIPGLO assay (extruded liposome substrate), in vitro DGK inhibition; type: biochemical; conditions: DGKζ liposome (LIPGLO) assay; read-out: DGKz LIPGLO IC50
pIC50: −log10 of the molar value.
Threshold rule: pIC50 greater than or equal to 5 is true (1); below that, false (0).

CCc1ccc(C(c2ccc(F)cc2)N2CCN(c3c(C#N)c(=O)n(C)c4ccc(C#N)nc34)C[C@H]2C)cc1 (stereo partly shown) [Example 885] | true (1)
CC(c1ccc(Cl)cc1)N1C[C@H](C)N(c2c(C#N)c(=O)n(C)c3ccc(C#N)nc23)C[C@H]1C (single isomer, unassigned) [Example 792] | false (0)
C[C@@H]1CN(c2cc(=O)n(C)c3ccc(C#N)nc23)[C@@H](C)CN1C(c1ccc(F)cc1)c1nc(N2CCOCC2)no1 (stereo partly shown) [Example 749] | true (1)
COc1ncccc1C(c1ccc(F)cc1)N1CCN(c2c(C#N)c(=O)n(C)c3ccc(C#N)nc23)C[C@H]1C (single isomer, unassigned) [Example 894] | true (1)
Cc1ccc(C(c2ccc(F)cn2)N2C[C@H](C)N(c3c(C#N)c(=O)n(C)c4ccc(C#N)nc34)C[C@H]2C)cc1 (stereo partly shown) [Example 833] | true (1)
CC(c1ccccc1C(F)(F)F)N1CCN(c2c(C#N)c(=O)n(C)c3ccc(C#N)nc23)C[C@H]1C (single isomer, unassigned) [Example 968] | false (0)
C[C@@H]1CN(c2cc(=O)n(C)c3ccc(C#N)nc23)[C@@H](C)CN1C(c1ccc(F)cc1)c1cc(C(C)(C)C)on1 (single isomer, unassigned) [Example 732] | true (1)
C[C@@H]1CN(c2c(C#N)c(=O)n(C)c3ccc(C#N)nc23)[C@@H](C)CN1C(c1ccc(F)cc1)c1cccc(C(F)(F)F)n1 (single isomer, unassigned) [Example 845] | true (1)
CC(c1ccc(C(=O)O)cc1)N1C[C@H](C)N(c2c(C#N)c(=O)n(C)c3ccc(C#N)nc23)C[C@H]1C (stereo partly shown) [Example 786] | false (0)
C[C@@H]1CN(c2c(C#N)c(=O)n(C)c3ccc(C#N)nc23)CCN1C(c1ccccc1)c1cc(F)cc(F)c1 (stereo partly shown) [Example 874] | true (1)

Quick check: does C[C@@H]1CN(c2c(C#N)c(=O)n(C)c3ccc(C#N)nc23)CCN1Cc1ccc2ccccc2n1 [Example 992] have pIC50 greater than or equal to 5? true (1)

###

target: human DGKα (Homo sapiens); construct: TVMV protease cleavage site (C); Hexa-His (C); made in house; host or cells: Sf9 insect cells (baculovirus, Bac-to-Bac); assay: DGKα LIPGLO assay (extruded liposome substrate), in vitro DGK inhibition; type: biochemical; settings: DGKα liposome (LIPGLO) assay; read-out: DGKa LIPGLO IC50
Sequence (P23743 with tags, fused parts or gaps): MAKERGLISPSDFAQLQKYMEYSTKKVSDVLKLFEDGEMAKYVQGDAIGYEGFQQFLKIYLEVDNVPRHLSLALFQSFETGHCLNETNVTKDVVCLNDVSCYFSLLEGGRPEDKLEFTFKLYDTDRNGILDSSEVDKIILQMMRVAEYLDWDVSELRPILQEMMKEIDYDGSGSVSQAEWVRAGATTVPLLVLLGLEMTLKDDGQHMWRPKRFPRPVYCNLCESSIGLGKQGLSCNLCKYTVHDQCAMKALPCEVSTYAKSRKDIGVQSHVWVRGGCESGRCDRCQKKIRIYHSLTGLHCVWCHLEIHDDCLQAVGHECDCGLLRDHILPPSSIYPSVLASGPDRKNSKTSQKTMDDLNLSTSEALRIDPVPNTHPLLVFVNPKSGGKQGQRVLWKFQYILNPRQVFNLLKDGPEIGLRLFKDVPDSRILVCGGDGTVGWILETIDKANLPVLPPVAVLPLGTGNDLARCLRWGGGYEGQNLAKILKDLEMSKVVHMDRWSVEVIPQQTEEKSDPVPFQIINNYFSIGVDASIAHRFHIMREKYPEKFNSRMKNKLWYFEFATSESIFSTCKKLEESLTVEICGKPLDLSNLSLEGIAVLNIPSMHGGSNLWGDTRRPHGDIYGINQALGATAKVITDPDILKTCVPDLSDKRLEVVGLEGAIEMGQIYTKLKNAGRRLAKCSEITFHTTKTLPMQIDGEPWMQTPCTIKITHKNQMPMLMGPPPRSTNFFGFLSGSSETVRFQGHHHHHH
Property: log10(IC50); scope: individual compounds
Quick note: numbers are log10 of IC50, with nM as the unit.

Worked examples, 8 compounds total:
Cc1ccc(C(c2ccc(F)cc2)N2CCN(c3c(C#N)c(=O)n(C)c4ccc(C#N)nc34)C[C@H]2C)nc1 (single isomer, unassigned) [Example 915] | 2.87
CCc1ccccc1C(c1ccc(F)cc1)N1C[C@H](C)N(c2c(C#N)c(=O)n(C)c3ccc(C#N)nc23)C[C@H]1C (single isomer, unassigned) [Example 809] | 5.15
CC(c1cccc(C(F)(F)F)c1)N1CCN(c2c(C#N)c(=O)n(C)c3ccc(C#N)nc23)C[C@H]1C (single isomer, unassigned) [Example 972] | 4.30
CC1CN(C(c2ccc(F)cc2)c2nc(C(C)(C)C)no2)C(C)CN1c1c(C#N)c(=O)n(C)c2ccc(C#N)nc12 (single isomer, unassigned) [Example 863] | 2.72
C[C@@H]1CN(c2c(C#N)c(=O)n(C)c3ccc(C#N)nc23)CCN1C(c1ccc(Cl)cc1)c1ncccc1F (stereo partly drawn) [Example 913] | 3.32
Cc1ccc(C(c2ccc(Cl)cc2)N2C[C@H](C)N(c3c(C#N)c(=O)n(C)c4ccc(C#N)nc34)C[C@H]2C)cc1 (stereo partly drawn) [Example 826] | 4.63
C[C@@H]1CN(c2c(C#N)c(=O)n(C)c3ccc(C#N)nc23)CCN1C(c1ccc(Cl)cc1)c1ccc(Cl)cn1 (stereo partly drawn) [Example 931] | 2.90
Cc1ccc(C(c2cccc(F)c2)N2CCN(c3c(C#N)c(=O)n(C)c4ccc(C#N)nc34)C[C@H]2C)nc1 (single isomer, unassigned) [Example 912] | 3.32

Value of measured log10(IC50) for the entry CC(c1ccccc1F)N1C[C@H](C)N(c2c(C#N)c(=O)n(C)c3ccc(C#N)nc23)C[C@H]1C (single isomer, unassigned) [Example 797] : 3.26

Entry CC(c1ccc(Br)cc1)N1CCN(c2c(C#N)c(=O)n(C)c3ccc(C#N)nc23)C[C@H]1C (single isomer, unassigned) [Example 974] — recorded log10(IC50) = 3.04

According to the records, this compound C[C@@H]1CN(c2c(C#N)c(=O)n(C)c3ccc(C#N)nc23)[C@@H](C)CN1C(c1ccc(F)cc1)c1csc(C2CC2)n1 (single isomer, unassigned) [Example 858] displays log10(IC50) of 2.68

log10(IC50) reported for this compound C[C@@H]1CN(c2c(C#N)c(=O)n(C)c3ccc(C#N)nc23)[C@@H](C)CN1C(c1ccc(F)cc1)c1cccc(C(F)(F)F)n1 (single isomer, unassigned) [Example 845] : 3.40
